Every entry's value here was drawn from paper PMC6796924.

- ASSAY METHOD TEXT: PK study after intranasal administration
- Format: in vivo, mice
- CONDITION CONTEXT: female, ICR, mouse, plasma, inhaled or intranasal, 108 ug, AUC0–t, single intranasal, HA solution, 108 μg/10 μL, mice
MEASURED QUANTITY: AUC(0-t)
Hi, when you answer, please include the unit after the number. Thanks!

In: What value of measured AUC(0-t) is listed for CSc1cc(C)nc(SC)c1NC(=O)CN1CCN(CCSc2nc3ccccc3[nH]2)CC1.Cl ?
Out: 170 ng·h/mL

----------
- ASSAY METHOD TEXT: PK study after intranasal administration
- Assay type: in vivo, mice
- CONDITION CONTEXT: female, Crl:CDI (ICR), mouse, plasma, other: intranasal, 162 μg, drug concentration in plasma, 45 min; repeated (7 days) intranasal, 0.01 N HCl solution, 50 μL, mice
MEASURED QUANTITY: concentration at 45 min (ng/mL)
The answer is to be given in ng/mL; state only the numeric part.

In: What value of measured concentration at 45 min is listed for CSc1cc(C)nc(SC)c1NC(=O)CN1CCN(CCSc2nc3ccccc3[nH]2)CC1.Cl ?
Out: 77

----------
- ASSAY METHOD TEXT: PK study after oral administration
- Assay type: in vivo, mice
- CONDITION CONTEXT: female, ICR, mouse, cerebellum, po, 6 mg/kg
MEASURED QUANTITY: Tmax (min)
The answer is to be given in min; state only the numeric part.

In: What value of measured Tmax is listed for CSc1cc(C)nc(SC)c1NC(=O)CN1CCN(CCSc2nc3ccccc3[nH]2)CC1.Cl ?
Out: 15

----------
- ASSAY METHOD TEXT: PK study after intranasal administration
- Format: in vivo, mice
- CONDITION CONTEXT: female, ICR, mouse, plasma, inhaled or intranasal, 108 ug, AUC0–t, single intranasal, GA solution, 108 μg/10 μL, mice
MEASURED QUANTITY: AUC(0-t) (µg·h/mL)
The answer is to be given in µg·h/mL; state only the numeric part.

In: What value of measured AUC(0-t) is listed for CSc1cc(C)nc(SC)c1NC(=O)CN1CCN(CCSc2nc3ccccc3[nH]2)CC1.Cl ?
Out: 0.121

----------
- ASSAY METHOD TEXT: PK study after intranasal administration
- Type: in vivo, mice
- CONDITION CONTEXT: female, ICR, mouse, cerebrum, inhaled or intranasal, 108 ug
MEASURED QUANTITY: Tmax (min)
The answer is to be given in min; state only the numeric part.

In: What value of measured Tmax is listed for CSc1cc(C)nc(SC)c1NC(=O)CN1CCN(CCSc2nc3ccccc3[nH]2)CC1.Cl ?
Out: 5

----------
- ASSAY METHOD TEXT: PK study after intranasal administration
- Assay type: in vivo, mice
- CONDITION CONTEXT: female, Crl:CDI (ICR), mouse, plasma, other: intranasal, 162 μg, drug concentration in plasma, 30 min; repeated (7 days) intranasal, 0.01 N HCl solution, 50 μL, mice
MEASURED QUANTITY: concentration at 30 min
Hi, when you answer, please include the unit after the number. Thanks!

In: What value of measured concentration at 30 min is listed for CSc1cc(C)nc(SC)c1NC(=O)CN1CCN(CCSc2nc3ccccc3[nH]2)CC1.Cl ?
Out: 250 ng/mL

----------
- ASSAY METHOD TEXT: PK study after intranasal administration
- Type: in vivo, mice
- CONDITION CONTEXT: female, ICR, mouse, olfactory bulb, inhaled or intranasal, 32.4 ug
MEASURED QUANTITY: Tmax at 7 days (min)
The answer is to be given in min; state only the numeric part.

In: What value of measured Tmax at 7 days is listed for CSc1cc(C)nc(SC)c1NC(=O)CN1CCN(CCSc2nc3ccccc3[nH]2)CC1.Cl ?
Out: 5

----------
- ASSAY METHOD TEXT: PK study after intranasal administration
- Assay type: in vivo, mice
- CONDITION CONTEXT: female, Crl:CD1 (ICR), mouse, plasma, inhaled or intranasal, 108 ug
MEASURED QUANTITY: Tmax (min)
The answer is to be given in min; state only the numeric part.

In: What value of measured Tmax is listed for CSc1cc(C)nc(SC)c1NC(=O)CN1CCN(CCSc2nc3ccccc3[nH]2)CC1.Cl ?
Out: 5

----------
- ASSAY METHOD TEXT: PK study after intranasal administration
- Assay type: in vivo, mice
- CONDITION CONTEXT: female, ICR, mouse, cerebrum, inhaled or intranasal, 108 ug, Cmax, single intranasal, GA solution, 108 μg/10 μL, mice
MEASURED QUANTITY: Cmax
Hi, when you answer, please include the unit after the number. Thanks!

In: What value of measured Cmax is listed for CSc1cc(C)nc(SC)c1NC(=O)CN1CCN(CCSc2nc3ccccc3[nH]2)CC1.Cl ?
Out: 32 ng/g
